Listing: Top FACS signal_Fold change (Jurkat-NFAT-luciferase activation, normalized to ch147E11E2) of selected binders
Target: human CD3 (human, UniProt P07766 23-207; P04234 22-171; P09693 23-182)
Sequence (P07766 23-207, chain 1 of 3): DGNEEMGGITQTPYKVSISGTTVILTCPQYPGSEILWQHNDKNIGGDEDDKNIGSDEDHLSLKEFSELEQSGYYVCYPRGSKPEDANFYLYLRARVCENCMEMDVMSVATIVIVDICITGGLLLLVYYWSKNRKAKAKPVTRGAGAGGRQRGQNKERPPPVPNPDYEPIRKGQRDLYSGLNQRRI
Sequence (P04234 22-171, chain 2 of 3): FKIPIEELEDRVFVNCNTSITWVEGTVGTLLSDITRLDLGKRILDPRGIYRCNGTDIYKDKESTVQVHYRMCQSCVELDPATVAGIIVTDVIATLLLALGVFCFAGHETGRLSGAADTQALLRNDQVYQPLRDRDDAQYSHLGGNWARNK
Sequence (P09693 23-182, chain 3 of 3): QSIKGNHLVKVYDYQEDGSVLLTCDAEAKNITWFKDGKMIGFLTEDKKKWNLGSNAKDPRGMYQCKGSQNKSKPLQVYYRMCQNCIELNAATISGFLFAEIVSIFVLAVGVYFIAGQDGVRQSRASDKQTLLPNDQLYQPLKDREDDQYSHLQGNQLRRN
Assay: cell-based or functional assay
Express it in fold; write the number only.

Worked examples follow.
- BINDER: "hu147E2-L2H2 (antibody, V domains shown, humanized 147E11E2; also called hu14E2-L2H2) VH: EVQLVQSGAEVKKPGSSVKVSCKASGYTFTSYWMHWVRQAPGQGLEWMGNINPSNGATNYNEKFKSRVTITADKSTSTAYMELSSLRSEDTAVYYCARDRSSQYYFDYWGQGTTVTVSS VL: DIVMTQSPDSLAVSLGERATINCKSSQSLLNSRSRKNYLAWYQQKPGQSPKLLIYWASTRESGVPDRFSGSGSGTDFTLTISSLQAEDVAVYYCTQSYTLRTFGGGTKVEIK"
  UNITS TEXT: "fold"
  RECORDED MEASUREMENT: 0.9
- BINDER: "hu147E2-L3H3 (antibody, V domains shown, humanized 147E11E2; also called hu14E2-L3H3) VH: EVQLVQSGAEVKKPGSSVKVSCKASGYTFTSYWMHWVRQAPGQGLEWMGNINPSNGATNYNEKFKSRVTLTVDKSTSTAYMELSSLRSEDTAVYYCARDRSSQYYFDYWGQGTTVTVSS VL: DIQMTQSPSSLSASVGDRVTITCKSSQSLLNSRSRKNYLAWYQQKPGKAPKLLIYWASTRESGVPSRFSGSGSGTDFTLTISSLQPEDFATYYCTQSYTLRTFGGGTKVEIK"
  UNITS TEXT: "fold"
  RECORDED MEASUREMENT: 0.68

Field: next binder
hu147E2-L3H2 (antibody, V domains shown, humanized 147E11E2; also called hu14E2-L3H2) VH: EVQLVQSGAEVKKPGSSVKVSCKASGYTFTSYWMHWVRQAPGQGLEWMGNINPSNGATNYNEKFKSRVTITADKSTSTAYMELSSLRSEDTAVYYCARDRSSQYYFDYWGQGTTVTVSS VL: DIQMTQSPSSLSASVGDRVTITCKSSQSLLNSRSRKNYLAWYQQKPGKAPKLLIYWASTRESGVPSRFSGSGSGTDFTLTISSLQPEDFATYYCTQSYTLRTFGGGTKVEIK yielded Top FACS signal_Fold change (Jurkat-NFAT-luciferase activation, normalized to ch147E11E2) of 0.76
